Each item that follows carries a reported logP.
Test: Partition coefficient (logP)
Type: physicochemical
Conditions: octanol/water
Answer field: number only, no words.

Compound	Observed value
O=C1CC2C(=O)NCC2CN1 (stereo in doubt; 2)	-2.11
CCOC(=O)C1CNC(=O)CC1C(=O)OCC (stereo in doubt; 7)	0.17
CCOC(=O)C1CNC(=O)CC1C(=O)OCC (stereo in doubt; 6)	-0.03

Entry under review: O=C1CC2C(=O)NCC2CN1 (stereo in doubt; 3) . Reported logP? -2

* * *

Experiment: Partition coefficient (logP)
Assay type: physicochemical
Details: octanol/water; read-out: logP
Rule: logP below -1 gives Satisfied, anything at or above gives Not satisfied.

Consider the following illustrative entries.
O=C1CCC2CCC(=O)N12 Satisfied
O=C1NCC[C@@H]2CNC(=O)[C@H]12 Satisfied
NC(=O)CN1CCCC1=O Satisfied
O=C1CCCCN1 Not satisfied

Then there is this compound:
Does the reported logP of the following compound sit strictly below -1? `O=C1CCCN1` Not satisfied

Where do the numbers come from? From ChEMBL document CHEMBL1128334.
